# Tested on: MS2 coat protein
# Test: apparent Kd, MS2 coat protein; higher = weaker binding; RNA-MaP array
# Setup Conditions: designed as: ON switch for flavin mononucleotide; no ligand
Answer Not satisfied if apparent Kd is under 20 nM, and Satisfied if it is 20 nM or more.

Sample answers from the record:
Sequence Content | Label
UUUUUAGGACAAGGAUAUUGAAUCGCACAUGAGGAUCACCCAUGUCCUCUGCAUACAGCGGACUUCAAGAAGGUGUCGACCAAU | Satisfied
AGGAGACGCAAGGAGGAUAUUCAUAUGGUAACAUGAGGAUCACCCAUGUAGUUCUAGUUGGGACUGAAGAAGGCCUUGCUAGCGCA | Satisfied
CAAACAUUAUCAGGAUAUGUGCAAGAUCCGACAUGAGGAUCACCCAUGUUGCGGCAUCUCGGUUGACAGAAGGGAUCAUCGCCU | Not satisfied
GCUACACAUGAGGAUCACCCAUGUCAGGUCACUGAAGGAUAUAUUACUUAAUCCUGGGUCAUAGAAGGUCAAUUGC | Satisfied

Has GACGAGUGCGAGUCACAUGAGGAUCACCCAUGUAACCAUGGGCAGGAUAUCUACCAGUUACUUUCAGAGAAGGGCCAACGAACU a recorded apparent Kd greater than or equal to 20 nM?
Satisfied
